target: P-gp (Homo sapiens); test: in vitro; conditions: Caco-2, pH 7.4, Efflux of digoxin A-B
Sequence (P08183 whole entry): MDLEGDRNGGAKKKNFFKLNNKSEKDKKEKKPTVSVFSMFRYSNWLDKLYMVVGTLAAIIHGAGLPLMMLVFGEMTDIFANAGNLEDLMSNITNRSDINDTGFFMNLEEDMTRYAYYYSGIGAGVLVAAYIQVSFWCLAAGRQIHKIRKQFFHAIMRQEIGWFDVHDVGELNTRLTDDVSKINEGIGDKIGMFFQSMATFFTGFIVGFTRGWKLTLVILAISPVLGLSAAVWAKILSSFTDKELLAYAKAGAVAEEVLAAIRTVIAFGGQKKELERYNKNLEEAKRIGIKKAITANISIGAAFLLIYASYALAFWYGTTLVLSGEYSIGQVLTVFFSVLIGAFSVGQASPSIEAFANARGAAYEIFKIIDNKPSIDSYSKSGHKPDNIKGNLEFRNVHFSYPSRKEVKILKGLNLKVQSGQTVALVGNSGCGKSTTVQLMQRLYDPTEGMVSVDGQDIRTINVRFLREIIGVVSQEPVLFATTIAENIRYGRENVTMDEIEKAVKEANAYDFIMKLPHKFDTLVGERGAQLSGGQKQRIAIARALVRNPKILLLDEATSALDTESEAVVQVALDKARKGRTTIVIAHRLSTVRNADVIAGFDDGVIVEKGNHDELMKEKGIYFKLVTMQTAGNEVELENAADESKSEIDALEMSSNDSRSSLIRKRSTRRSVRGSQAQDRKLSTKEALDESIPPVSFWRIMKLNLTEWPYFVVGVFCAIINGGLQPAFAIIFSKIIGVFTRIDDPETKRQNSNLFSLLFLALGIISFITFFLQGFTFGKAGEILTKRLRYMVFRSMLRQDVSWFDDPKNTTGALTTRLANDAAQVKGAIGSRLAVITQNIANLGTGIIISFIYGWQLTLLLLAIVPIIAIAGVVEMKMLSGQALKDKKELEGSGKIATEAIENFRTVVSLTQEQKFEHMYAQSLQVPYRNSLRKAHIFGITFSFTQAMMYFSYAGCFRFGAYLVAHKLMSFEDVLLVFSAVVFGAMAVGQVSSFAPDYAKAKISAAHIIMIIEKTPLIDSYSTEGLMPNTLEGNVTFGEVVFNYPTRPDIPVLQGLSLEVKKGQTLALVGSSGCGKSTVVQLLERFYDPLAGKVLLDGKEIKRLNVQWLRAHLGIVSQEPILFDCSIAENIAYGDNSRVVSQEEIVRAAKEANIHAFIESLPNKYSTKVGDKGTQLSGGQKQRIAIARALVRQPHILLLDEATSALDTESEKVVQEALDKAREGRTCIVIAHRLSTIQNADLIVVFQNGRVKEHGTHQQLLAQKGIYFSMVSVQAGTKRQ
parameter measured: Papp A→B at 2 h
# output: numeric value plus its unit

Retrieve Papp A→B at 2 h on P-gp (Homo sapiens); query C[C@H]1O[C@@H](O[C@H]2[C@@H](O)C[C@H](O[C@H]3[C@@H](O)C[C@H](O[C@H]4CC[C@@]5(C)[C@H](CC[C@@H]6[C@@H]5C[C@@H](O)[C@]5(C)[C@@H](C7=CC(=O)OC7)CC[C@]65O)C4)O[C@@H]3C)O[C@@H]2C)C[C@H](O)[C@@H]1O
0.2 ×10⁻⁶ cm/s

----------
assay: in vitro; settings: human, pH 7.4
Give measured efflux ratio at 2 h for each item. Keep answers brief.

Please indicate efflux ratio at 2 h recorded for CNCCCN1c2ccccc2CCc2ccccc21
6.84

Please indicate efflux ratio at 2 h recorded for COc1cc([C@@H]2c3cc4c(cc3[C@@H](O[C@@H]3O[C@@H]5CO[C@@H](C)O[C@H]5[C@H](O)[C@H]3O)[C@H]3COC(=O)[C@H]23)OCO4)cc(OC)c1O [Etoposide]
11.5

Please indicate efflux ratio at 2 h recorded for Cc1cc(=O)n(-c2ccccc2)n1C [Antipyrine]
0.92

----------
system: MRP2 mRNA; experiment: RT-PCR of MRP2 mRNA expression in transduced C2BBe1 cells; type: cell-based, human; conditions: MRP2 mRNA vs vector control
parameter measured: Percent decrease in ratio compared to control (%)
Unit % implied. Number only.

Please indicate Percent decrease in ratio compared to control recorded for shRNA/MRP2 #7: interfering RNA to MRP2, SEQ ID NO: 21, lentivirally transduced into C2BBe1 cells; clone #7 (CCGGCCATAGCTTCATTCCTGAGTACTCGAGTACTCAGGAATGAAGCTATGGTTTTTG; listed as Homo Sapiens)
19.53

Please indicate Percent decrease in ratio compared to control recorded for shRNA/MRP2 #3: interfering RNA to MRP2, SEQ ID NO: 17, lentivirally transduced into C2BBe1 cells; clone #3 (CCGGCGTGTATAAATCCAGGACCAACTCGAGTTGGTCCTGGATTTATACACGTTTTTG; listed as Homo Sapiens)
15.12

Please indicate Percent decrease in ratio compared to control recorded for shRNA/MRP2 #6: interfering RNA to MRP2, SEQ ID NO: 20, lentivirally transduced into C2BBe1 cells; clone #6 (CCGGGCCGGTGGTCAGATTATCATTCTCGAGAATGATAATCTGACCACCGGCTTTTTG; listed as Homo Sapiens)
−7.59

Please indicate Percent decrease in ratio compared to control recorded for shRNA/MRP2 #4: interfering RNA to MRP2, SEQ ID NO: 18, lentivirally transduced into C2BBe1 cells; clone #4 (CCGGCCTGGTGGATAGCAACAATATCTCGAGATATTGTTGCTATCCACCAGGTTTTTG; listed as Homo Sapiens)
15.31

Please indicate Percent decrease in ratio compared to control recorded for shRNA/MRP2 #5: interfering RNA to MRP2, SEQ ID NO: 19, lentivirally transduced into C2BBe1 cells; clone #5 (CCGGGCATCTGAAGTCCCTGAGAAACTCGAGTTTCTCAGGGACTTCAGATGCTTTTTG; listed as Homo Sapiens)
6.04

----------
tested on: P-gp mRNA; assay: RT-PCR of P-gp mRNA expression in transduced C2BBe1 cells; assay type: cell-based, human; conditions: RT-PCR, shRNA/P-gp clone cells
parameter measured: P-gp mRNA expression relative to control C2BBe1 cells

Some substances with known P-gp mRNA expression relative to control C2BBe1 cells results, for comparison:
{"substance": "shRNA/P-gp #83: shRNA to human P-gp, SEQ ID NO: 1, lentivirally transduced into C2BBe1 cells; clone #83 (CCGGCCGAACACATTGGAAGGAAATCTCGAGATTTCCTTCCAATGTGTTCGGTTTTTG; listed as Homo Sapiens)", "measured result": "significantly reduced"}
{"substance": "shRNA/P-gp #85: shRNA to human P-gp, SEQ ID NO: 3, lentivirally transduced into C2BBe1 cells; clone #85 (CCGGCGACAGAATAGTAACTTGTTTCTCGAGAAACAAGTTACTATTCTGTCGTTTTTG; listed as Homo Sapiens)", "measured result": "significantly reduced"}
{"substance": "shRNA/P-gp #84: shRNA to human P-gp, SEQ ID NO: 2, lentivirally transduced into C2BBe1 cells; clone #84 (CCGGGCAGCAATTAGAACTGTGATTCTCGAGAATCACAGTTCTAATTGCTGCTTTTTG; listed as Homo Sapiens)", "measured result": "significantly reduced"}
{"substance": "shRNA/P-gp #86: shRNA to human P-gp, SEQ ID NO: 4, lentivirally transduced into C2BBe1 cells; clone #86 (CCGGGCTCATCGTTTGTCTACAGTTCTCGAGAACTGTAGACAAACGATGAGCTTTTTG; listed as Homo Sapiens)", "measured result": "significantly reduced"}

// below: P-gp mRNA expression relative to control C2BBe1 cells requested for another substance
Retrieve P-gp mRNA expression relative to control C2BBe1 cells on P-gp mRNA; query shRNA/P-gp #87: shRNA to human P-gp, SEQ ID NO: 5, lentivirally transduced into C2BBe1 cells; clone #87 (CCGGGCTGCTTTCCTGCTGATCTATCTCGAGATAGATCAGCAGGAAAGCAGCTTTTTG; listed as Homo Sapiens)
significantly reduced

Data provenance is patent US8110398B2.
